- SUBJECT OF TEST: NL63 Mpro protease (Human coronavirus NL63 (HCoV-NL63), UniProt P0C6X5)
- Sequence (P0C6X5 2940-3242 limits assumed): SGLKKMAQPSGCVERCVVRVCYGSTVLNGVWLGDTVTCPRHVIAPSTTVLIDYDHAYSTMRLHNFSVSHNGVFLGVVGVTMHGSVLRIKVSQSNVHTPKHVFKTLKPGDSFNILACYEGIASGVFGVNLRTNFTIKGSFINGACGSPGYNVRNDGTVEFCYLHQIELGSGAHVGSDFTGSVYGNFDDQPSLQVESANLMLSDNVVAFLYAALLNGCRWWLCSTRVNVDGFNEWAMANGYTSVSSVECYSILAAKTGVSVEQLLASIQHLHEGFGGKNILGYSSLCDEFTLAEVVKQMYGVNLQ
TEST READOUT: IC50 (µM)
// units = µM; emit number, no label

Missing value: IC50, NL63 Mpro protease (Human coronavirus NL63 (HCoV-NL63), UniProt P0C6X5), entry CC(C)C[C@H](NC(=O)OCc1ccccc1)C(=O)N[C@@H](CC1CCNC1=O)C(O)S(=O)(=O)O (stereo partly shown) . Fill in?
0.107

* * *

- METHOD SUMMARY: in vivo
- CONDITION SUMMARY: male, Sprague-Dawley, rat, iv, 0.5 mg/kg, T1/2
TEST READOUT: half-life (h)
// units = h; emit number, no label

# half-life lookup, item [2H]C([2H])([2H])n1cnc(Cn2c(=O)[nH]/c(=N\c3cc4cn(C)nc4cc3Cl)n(Cc3cc(F)c(F)cc3F)c2=O)n1 [Compound I-2]
3.36

* * *

- METHOD SUMMARY: in vivo
- CONDITION SUMMARY: male, Sprague-Dawley, rat, po, 5 mg/kg, AUC0-∞, SD rat
Reported AUC(0-inf) is given for each of the following compounds.
// units = ng·h/mL; emit number, no label

[2H]C([2H])([2H])n1cnc(Cn2c(=O)[nH]/c(=N\c3cc4cn(C)nc4cc3Cl)n(Cc3cc(F)c(F)cc3F)c2=O)n1 ... 65300

# AUC(0-inf) lookup, item `[2H]C([2H])([2H])n1cnc(Cn2c(=O)nc(Nc3cc4cn(C([2H])([2H])[2H])nc4cc3Cl)n(Cc3cc(F)c(F)cc3F)c2=O)n1`
58300

# AUC(0-inf) lookup, item `[2H]C([2H])([2H])n1cnc(Cn2c(=O)n(COC(=O)OC(C)C)/c(=N\c3cc4cn(C)nc4cc3Cl)n(Cc3cc(F)c(F)cc3F)c2=O)n1`
70900

# AUC(0-inf) lookup, item `O=C(O)/C=C/C(=O)O.[2H]C([2H])([2H])n1cnc(Cn2c(=O)[nH]/c(=N\c3cc4cn(C)nc4cc3Cl)n(Cc3cc(F)c(F)cc3F)c2=O)n1`
45500

* * *

- METHOD SUMMARY: in vivo
- CONDITION SUMMARY: male, Sprague-Dawley, rat, po, 5 mg/kg, AUC0-∞
TEST READOUT: AUC(0-inf) (ng·h/mL)
// units = ng·h/mL; emit number, no label

# AUC(0-inf) lookup, item `Cn1cnc(Cn2c(=O)[nH]/c(=N\c3cc4nn(C)cc4cc3Cl)n(Cc3cc(F)c(F)cc3F)c2=O)n1`
53900

* * *

- System: Huh7 cells
Reported CC50 is given for each of the following compounds.

In the examples that follow, each entry is paired with its recorded CC50.
Cn1cnc(Cn2c(=O)[nH]/c(=N\c3cc4nn(C)cc4cc3Cl)n(Cc3cc(F)c(F)cc3F)c2=O)n1 ... >1 microns
O=C(O)/C=C/C(=O)O.[2H]C([2H])([2H])n1cnc(Cn2c(=O)[nH]/c(=N\c3cc4cn(C)nc4cc3Cl)n(Cc3cc(F)c(F)cc3F)c2=O)n1 ... >1 microns
O=c1nc(NO)ccn1[C@@H]1O[C@H](CO)[C@@H](O)[C@H]1O ... >10 microns

Missing value: CC50, Huh7 cells, entry `CCC(CC)COC(=O)[C@H](C)N[P@](=O)(OC[C@H]1O[C@@](C#N)(c2ccc3c(N)ncnn23)[C@H](O)[C@@H]1O)Oc1ccccc1` . Fill in?
>1 microns

* * *

- METHOD SUMMARY: in vitro
- Type: cell-based
- CONDITION SUMMARY: human
TEST READOUT: CC50

# CC50 lookup, item `Cn1cnc(Cn2c(=O)[nH]/c(=N\c3cc4nn(C)cc4cc3Cl)n(Cc3cc(F)c(F)cc3F)c2=O)n1`
> 100 µM

* * *

- METHOD SUMMARY: in vitro
- Assay type: cell-based
- CONDITION SUMMARY: human
TEST READOUT: CC50

# CC50 lookup, item `Cn1cnc(Cn2c(=O)[nH]/c(=N\c3cc4nn(C)cc4cc3Cl)n(Cc3cc(F)c(F)cc3F)c2=O)n1`
> 100 µM

* * *

- METHOD SUMMARY: in vitro
- Format: cell-based
- CONDITION SUMMARY: human; HepG2, 3 days; read-out: CC50
- Experimental: Nine cell lines originated from different human tissues (Table 2) are selected to evaluate the cytotoxicity of the tested compounds. Sorafenib or Taxol are used as cytotoxic control compounds. […] Cells are cultured in culture medium containing 10% FBS, 5% CO2 and 37° C. for 3 days, and then cell viability was detected by CellTiter-Glo reagent. […] The dose-response curves of the compounds are analyzed by GraphPad Prism software and CC50 values are calculated. […]
TEST READOUT: CC50 (µM)
// units = µM; emit number, no label

# CC50 lookup, item `CNC(=O)c1cc(Oc2ccc(NC(=O)Nc3ccc(Cl)c(C(F)(F)F)c3)cc2)ccn1`
5.32

* * *

- METHOD SUMMARY: in vitro
- Assay type: in vitro ADME, people
- CONDITION SUMMARY: human, hepatocytes
TEST READOUT: half-life at 0.5 μM
Report as: number unit

[2H]C([2H])(c1ncn(C)n1)n1c(=O)nc(Nc2cc3cn(C)nc3cc2Cl)n(Cc2cc(F)c(F)cc2F)c1=O [Compound I-3] ... 204 h

Next compound, please.
# half-life at 0.5 μM lookup, item [2H]C([2H])([2H])n1cc2cc(Nc3nc(=O)n(Cc4ncn(C)n4)c(=O)n3Cc3cc(F)c(F)cc3F)c(Cl)cc2n1 [Compound I-5]
29.9 h

* * *

- METHOD SUMMARY: in vitro
- Type: cell-based
- CONDITION SUMMARY: human
TEST READOUT: CC50

# CC50 lookup, item `Cn1cnc(Cn2c(=O)[nH]/c(=N\c3cc4nn(C)cc4cc3Cl)n(Cc3cc(F)c(F)cc3F)c2=O)n1`
> 100 µM

* * *

- METHOD SUMMARY: in vitro
- Format: cell-based
- CONDITION SUMMARY: human
TEST READOUT: CC50

# CC50 lookup, item `Cn1cnc(Cn2c(=O)[nH]/c(=N\c3cc4nn(C)cc4cc3Cl)n(Cc3cc(F)c(F)cc3F)c2=O)n1`
> 100 µM

* * *

- METHOD SUMMARY: in vivo
- CONDITION SUMMARY: male, Sprague-Dawley, rat, po, 5 mg/kg, Tmax, SD rat
TEST READOUT: Tmax (h)
// units = h; emit number, no label

# Tmax lookup, item `O=C(O)/C=C/C(=O)O.[2H]C([2H])([2H])n1cnc(Cn2c(=O)[nH]/c(=N\c3cc4cn(C)nc4cc3Cl)n(Cc3cc(F)c(F)cc3F)c2=O)n1`
2

# Tmax lookup, item `[2H]C([2H])([2H])n1cnc(Cn2c(=O)nc(Nc3cc4cn(C([2H])([2H])[2H])nc4cc3Cl)n(Cc3cc(F)c(F)cc3F)c2=O)n1`
4

# Tmax lookup, item `[2H]C([2H])([2H])n1cnc(Cn2c(=O)n(COC(=O)OC(C)C)/c(=N\c3cc4cn(C)nc4cc3Cl)n(Cc3cc(F)c(F)cc3F)c2=O)n1`
3.33

# Tmax lookup, item `[2H]C([2H])([2H])n1cnc(Cn2c(=O)[nH]/c(=N\c3cc4cn(C)nc4cc3Cl)n(Cc3cc(F)c(F)cc3F)c2=O)n1`
2.33

* * *

- METHOD SUMMARY: in vitro
- Assay type: cell-based
- CONDITION SUMMARY: human
TEST READOUT: CC50

# CC50 lookup, item Cn1cnc(Cn2c(=O)[nH]/c(=N\c3cc4nn(C)cc4cc3Cl)n(Cc3cc(F)c(F)cc3F)c2=O)n1 [CVL201]
> 100 µM

* * *

- METHOD SUMMARY: in vivo
- CONDITION SUMMARY: male, Sprague-Dawley, rat, po, 5 mg/kg, Tmax
TEST READOUT: Tmax (h)
// units = h; emit number, no label

# Tmax lookup, item Cn1cnc(Cn2c(=O)[nH]/c(=N\c3cc4nn(C)cc4cc3Cl)n(Cc3cc(F)c(F)cc3F)c2=O)n1 [CVL201]
4.67
